Just for reference, PubChem BioAssay (NCATS) is where these values come from.

target: Retinaldehyde dehydrogenase 3 (Homo sapiens); test: qHTS for Inhibitors of the Aldehyde Dehydrogenase Family (ALDH1A3) Validation screen (AID 2061312); conditions: ALDH1A3 enzyme inhibition qHTS validation, fluorescence; series mostly up to 84.7 µM; note: nearly all actives have a fitted effect of over 45% in size
Results filed as inconclusive are left out. Active and inactive are the calls of the source. Calls come from the whole dose curve; as a rule, active = well fitted inhibition curve with a large enough effect; inconclusive = small, poorly fitted or top-dose-only effect; inactive = no such curve, though single readings can be large or run the other way.
One label from this list, please: yes (active), no (inactive)

Query: Test call, this compound: CCc1cncnc1N1CCN(Cc2nc3ccc(C(F)(F)F)cc3[nH]2)CC1
Response: no

Query: Test call, this compound: NC(=O)c1cccc2cn(-c3ccc(C4CCCNC4)cc3)nc12 (centres undefined)
Response: no

Query: Test call, this compound: COc1ccc(-c2nc(-c3cc(C(F)(F)F)cc(C(F)(F)F)c3)n(Cc3ccc(C(N)=O)cc3)c2-c2ccc(OC)cc2)cc1
Response: no

Query: Test call, this compound: Nn1nnc2ccccc21
Response: no

Query: Test call, this compound: C[C@H]1O[C@@H](n2cc(F)c(=O)[nH]c2=O)[C@H](O)[C@@H]1O
Response: no

Query: Test call, this compound: CC(C)CCNC(=O)c1ccc2c(c1)nc(Nc1n[nH]c3ccc(-c4ccccc4OC(F)(F)F)cc13)n2C1CCC(O)CC1 (centres undefined)
Response: no

Query: Test call, this compound: CN(C)[C@@H]1CCc2[nH]c3ccc(NC(=O)c4ccc(F)cc4)cc3c2C1
Response: no

Query: Test call, this compound: COc1ccc2[nH]cc(CCNC(C)=O)c2c1
Response: no

Query: Test call, this compound: CCN(CC)CCCN(c1ccccc1)C1Cc2ccccc2C1
Response: no

Query: Test call, this compound: Cc1cc(NC(=O)Nc2ccc(F)c(F)c2)n(-c2ccccc2)n1
Response: no

Query: Test call, this compound: CC1=C(/C=C/C(C)=C/C=C/C(C)=C/C(=O)Nc2ccc(O)cc2)C(C)(C)CCC1
Response: no

Query: Test call, this compound: COc1nc(C)cnc1NS(=O)(=O)c1cccnc1-c1ccc(-c2nnco2)cc1
Response: no

Query: Test call, this compound: CCN(Cc1ccncc1)C(=O)C(CO)c1ccccc1 (centres undefined)
Response: no

Query: Test call, this compound: COc1cc2c(cc1OC)CN(CCc1ccc(NC(=O)c3cccc4c(=O)c5cccc(OC)c5[nH]c34)cc1)CC2
Response: no

Query: Test call, this compound: CN1CCN(C2=Nc3ccccc3Nc3ccc(OS(=O)(=O)C(F)(F)F)cc32)CC1
Response: no

Query: Test call, this compound: CCOc1nc2c(N)ncnc2n1CC
Response: no

Query: Test call, this compound: CCc1ccc2c(-c3cccc(Cl)c3)nc(=O)n(CC)c2n1
Response: no

Query: Test call, this compound: NC(N)=NCc1cccc(I)c1
Response: no

Query: Test call, this compound: C[N+](C)(C)CCOP(=O)(O)OP(=O)([O-])OC[C@H]1O[C@@H](n2ccc(N)nc2=O)[C@H](O)[C@@H]1O
Response: no

Query: Test call, this compound: CCN(CC)CCNC(=O)c1ccc2nc(-c3ccccc3)c(-c3ccc(CN4CCC(n5c(=O)[nH]c6ccccc65)CC4)cc3)nc2c1
Response: no

Query: Test call, this compound: OC[C@H]1O[C@@H](n2cnc3c(NC4CCCCC4)ncnc32)[C@H](O)[C@@H]1O
Response: no

Query: Test call, this compound: CN1CCN(c2nc3cc(C(F)(F)F)ccc3n3cccc23)CC1
Response: no

Query: Test call, this compound: CCCCOC(=O)NC(=O)C1c2ccccc2Oc2ccccc21
Response: no

Query: Test call, this compound: CC#CCOC(=O)c1c(C)nc2sc3c(c2c1N)CCC(O)C3 (centres undefined)
Response: no

Query: Test call, this compound: COc1ccccc1N1CCN(CCCNc2c(C)c(=O)n(C)c(=O)n2C)CC1
Response: no

Query: Test call, this compound: O=C(NCC(=O)N1CCCC1)Nc1ccc2ccccc2c1
Response: yes

Query: Test call, this compound: CCN(CC)CCNC(=O)c1cc(Cl)c(N)cc1OC
Response: no

Query: Test call, this compound: C#CC(N)CCC(=O)O (centres undefined)
Response: no

Query: Test call, this compound: COC(=O)Nc1nc2ccc(C(=O)c3ccc(F)cc3)cc2[nH]1
Response: no

Query: Test call, this compound: CN1CCN(C2=Nc3ccccc3Oc3ccc(Cl)cc32)CC1
Response: no

Query: Test call, this compound: Clc1ccc2c(c1)N=C(N1CCNCC1)c1ccccc1N2
Response: no

Query: Test call, this compound: Cc1cccc2c1NC(=O)C2(c1ccc(O)cc1)c1ccc(O)cc1
Response: no

Query: Test call, this compound: C=C1C[C@@]23CC[C@H]4[C@@](C)(CCC[C@@]4(C)C(=O)O)[C@@H]2CC[C@]1(O)C3
Response: no

Query: Test call, this compound: O=C(CCCCN1CCOCC1)Nc1ccc(-c2cccnc2)cc1
Response: no

Query: Test call, this compound: CC(C)C[C@H](NC(=O)[C@@H](NC(=O)c1cccc(-c2ccccc2)n1)[C@@H](C)O)B(O)O
Response: yes

Query: Test call, this compound: CC[C@@H](N)CNc1ccnc(-c2cc(-c3cnn(C)c3)ccc2O)n1
Response: no

Query: Test call, this compound: COc1cc2ncnc(Nc3cccc(Cl)c3)c2cc1OC
Response: no

Query: Test call, this compound: O=[N+]([O-])c1cc(Cl)ccc1S(=O)(=O)N1CCN(Cc2ccccc2)CC1
Response: no

Query: Test call, this compound: S=C(S)OC1CC2CC1C1CCCC21 (centres undefined)
Response: no

Query: Test call, this compound: CC(=O)c1ccc2c(c1)N(CCCN(C)C)c1ccccc1S2
Response: no

Query: Test call, this compound: C[N+](C)(C)CC=O
Response: no

Query: Test call, this compound: O=C(O)C1(c2ccc(-c3ccc(Cl)c(Cl)c3)c(F)c2)CC1
Response: yes

Query: Test call, this compound: O=C(Nc1cccnc1)N1CCC(Cc2cccc(Oc3ccc(C(F)(F)F)cn3)c2)CC1
Response: no

Query: Test call, this compound: CCN(CC)CCNC(=O)c1cc(S(C)(=O)=O)ccc1OC
Response: no
